meta.source: patent US7511041B2

Provide the recorded melting point for the entries that follow.

// known answers, use as guide
>>> print(df.to_string())
                                item_smiles          value
0  Cl.O/C(=C\C1=Nc2ccc(Br)cc2C2=NCCN12)c1cccnc1       > 300 °C
1         CC(C)CC(=O)NC1=Nc2ccccc2C2=NCCN12  154 °C (dec.)
2   COc1cccc(C(=O)NC2=Nc3ccccc3C3=NCCN23)c1  202 to 204 °C
3  COc1cc2c(cc1OC)C1=NCCN1C(/C=C(\O)c1ccc(Cl)nc1)=N2         283 °C
4  Cl.O=C(NC1=Nc2ccccc2C2=NCCN12)c1ccc(-n2ccnc2)cc1  324 °C (dec.)
5  Cc1nc(C)c(C(=O)NC2=Nc3ccccc3C3=NCCN23)s1.Cl  289 to 290 °C
6  Cc1nc(C)c(C(=O)NC2=Nc3ccccc3C3=NCCN23)s1  243 °C (dec.)
7  COc1ccc2c(c1OCC(=O)O)N=C(/C=C(\O)c1cccnc1)N1CCN=C21.Cl  286 °C (dec.)

# context switch: different compound, same melting point
# melting point (compound: `CCn1nc(C)cc1C(=O)NC1=Nc2ccccc2C2=NCCN12` ) is 207 to 208 °C

---

# Target or system: Recombinant human PI3Kγ (full length human PI3K p110γ) (Homo sapiens)
# Construct: full length human PI3K p110γ fused with a His6-tag at the C-terminus; His6 (C); purchased ALEXIS BIOCHEMICALS #201-055-C010; host or cells: S. frugiperda 9 insect cells
# Assay overview: Kinase assay of PI3Kγ (solid-phase lipid kinase assay)
# Type: biochemical
# Setup conditions: in vitro PI3K-γ inhibitory activity, class symbols; read-out: in vitro PI3K-gamma
pIC50: −log10 of the molar value.
Property label: pIC50

// known answers, use as guide
>>> print(df.to_string())
                                item_smiles         value
0  COc1cccc2c1N=C(NC(=O)c1ccc(N)nc1)N1CCN=C21.Cl        > 7.00
1      Cc1ncccc1C(=O)NC1=Nc2ccccc2C2=NCCN12  6.30 to 7.00

Batch of 5 molecules: report pIC50 for each.
1. COc1ccc2c(c1Br)N=C(NC(=O)c1cccnc1)N1CCN=C21
2. O=C(NC1=Nc2ccc(Br)cc2C2=NCCN12)c1cccnc1
3. Cl.O=C(NC1=Nc2cc(C(F)(F)F)ccc2C2=NCCN12)c1cccnc1
4. Cl.O=C(NC1=Nc2cc(Br)ccc2C2=NCCN12)c1cccnc1
5. Cl.O=C(NC1=Nc2cc(N3CCOCC3)ccc2C2=NCCN12)c1ccc2[nH]cnc2c1

> 7.00
6.30 to 7.00
> 7.00
> 7.00
> 7.00

Batch of 2 molecules: report pIC50 for each.
1. O=C(NC1=Nc2cc(OCCCO)ccc2C2=NCCN12)c1cccnc1
2. COc1ccc2c(c1)N=C(NC(=O)c1ccc3[nH]cnc3c1)N1CCN=C21

1. > 7.00
2. > 7.00

---

Provide the recorded pIC50 for the entries that follow.
# Target or system: Recombinant human PI3Kγ (full length human PI3K p110γ) (Homo sapiens, UniProt P48736)
# Construct: full length human PI3K p110γ fused with a His6-tag at the C-terminus; His6 (C); purchased ALEXIS BIOCHEMICALS #201-055-C010; host or cells: S. frugiperda 9 insect cells
# Sequence (P48736 whole entry, the tested form may be a part): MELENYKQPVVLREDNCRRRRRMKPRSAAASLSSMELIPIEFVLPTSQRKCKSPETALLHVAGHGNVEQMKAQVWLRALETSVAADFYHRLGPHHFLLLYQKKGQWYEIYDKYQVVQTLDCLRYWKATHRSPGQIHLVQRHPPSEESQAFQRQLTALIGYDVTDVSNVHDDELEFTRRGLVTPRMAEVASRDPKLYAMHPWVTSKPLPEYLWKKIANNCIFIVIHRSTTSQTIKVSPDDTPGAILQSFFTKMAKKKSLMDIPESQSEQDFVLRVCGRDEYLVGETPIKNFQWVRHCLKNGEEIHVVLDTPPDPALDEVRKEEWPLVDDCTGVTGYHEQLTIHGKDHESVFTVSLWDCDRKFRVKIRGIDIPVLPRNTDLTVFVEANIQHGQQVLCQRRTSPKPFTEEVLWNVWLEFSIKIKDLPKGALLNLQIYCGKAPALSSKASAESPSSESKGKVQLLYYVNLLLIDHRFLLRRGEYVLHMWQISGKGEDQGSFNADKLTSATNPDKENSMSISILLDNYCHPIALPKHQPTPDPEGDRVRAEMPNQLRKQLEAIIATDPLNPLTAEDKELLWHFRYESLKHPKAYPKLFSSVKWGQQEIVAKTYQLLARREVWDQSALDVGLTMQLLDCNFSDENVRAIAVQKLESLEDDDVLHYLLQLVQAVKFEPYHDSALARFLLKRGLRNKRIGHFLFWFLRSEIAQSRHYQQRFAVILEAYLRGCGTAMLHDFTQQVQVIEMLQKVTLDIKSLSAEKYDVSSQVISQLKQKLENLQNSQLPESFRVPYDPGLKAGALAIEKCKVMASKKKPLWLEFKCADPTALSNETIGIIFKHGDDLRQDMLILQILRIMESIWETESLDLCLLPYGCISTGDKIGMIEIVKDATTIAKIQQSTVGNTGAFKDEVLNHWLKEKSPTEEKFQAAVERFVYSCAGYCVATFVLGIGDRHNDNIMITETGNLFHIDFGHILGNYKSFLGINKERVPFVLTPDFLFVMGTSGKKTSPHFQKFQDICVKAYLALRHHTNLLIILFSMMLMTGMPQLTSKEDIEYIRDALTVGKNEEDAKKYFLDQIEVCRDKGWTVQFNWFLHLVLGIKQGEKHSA
# Assay overview: Kinase assay of PI3Kγ (solid-phase lipid kinase assay)
# Format: biochemical
# Setup conditions: in vitro PI3K-γ inhibitory activity, class symbols; read-out: in vitro PI3K-gamma
# Description: [Determination of IC50 Values of Compounds in Kinase Assay of PI3Kγ] Chemicals and Assay Materials LABORATORIES (Toronto, Canada). […] The plates were subsequently air-dried by incubation for at least 2 hours in a fume hood. […] MicroScint PS™ (PACKARD) scintillation mix was added at 100 μl/well, and radioactivity was counted by using a TopCount™ (PACKARD) scintillation counter. […]
pIC50: −log10 of the molar value.

// known answers, use as guide
>>> df
                                item_smiles         value
0  Cl.O=C(NC1=Nc2ccccc2C2=NCCN12)c1cccc2[nH]ccc12  6.30 to 7.00
1  Nc1ccc(C(=O)NC2=Nc3ccccc3C3=NCCN23)cc1.O=C(O)C(F)(F)F  6.30 to 7.00
2  COc1cccc2c1N=C(NC(=O)c1cc3cccnc3nc1C(F)(F)F)N1CCN=C21        > 7.00
3    O=C(NC1=Nc2c(F)cccc2C2=NCCN12)c1cccnc1  6.30 to 7.00
4  Cc1ccc2c(c1)N=C(NC(=O)c1ccc3[nH]cnc3c1)N1CCN=C21.Cl  6.30 to 7.00
5  COc1ccc2c(c1)C1=NCCN1C(NC(=O)c1ccc3[nH]cnc3c1)=N2.Cl        > 7.00
6  Cc1ccc2c(c1)C1=NCCN1C(NC(=O)c1cccnc1)=N2.Cl  6.30 to 7.00
7  Cl.O=C(NC1=Nc2cc(C(F)(F)F)ccc2C2=NCCN12)c1cncc(O)c1        > 7.00

# context switch: different compound, same pIC50
# pIC50 (compound: `Cc1nc2ncccc2cc1C(=O)NC1=Nc2ccccc2C2=NCCN12` ) is 6.30 to 7.00
